# System: biotinyl-Val-oxazolone
# Experiment: self-aminoacylation, catalytic enhancement (BVO) (fold over background); higher = more active; k-Seq, kA / k0A0; sequences stand for … in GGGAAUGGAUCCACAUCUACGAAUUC…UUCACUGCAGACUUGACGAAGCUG
Fewer inactive variants are shown than the library holds.
Classification field. Basis: self-aminoacylation. Definitions: low class = under 0.9, middle class = from 0.9 up to 3, high class = 3 and over

Completed entries (count: 5):
>  <Query Sequence>
AAAUUUGCUAAUAGUCCCAAG [Fam3.1 aminoacylation ribozyme variant]

>  <Study System>
biotinyl-Val-oxazolone

>  <Category Label>
middle class

$$$$
>  <Query Sequence>
AUUCACCGAGGUCACCGGGUG [Fam2.2 aminoacylation ribozyme variant]

>  <Study System>
biotinyl-Val-oxazolone

>  <Category Label>
high class

$$$$
>  <Query Sequence>
AUUCUCCUCGGUCAUCGGGUG [Fam2.2 aminoacylation ribozyme variant]

>  <Study System>
biotinyl-Val-oxazolone

>  <Category Label>
high class

$$$$
>  <Query Sequence>
AUUACCCUAGUCAUCCAGUGA [Fam2.1 aminoacylation ribozyme variant]

>  <Study System>
biotinyl-Val-oxazolone

>  <Category Label>
middle class

$$$$
>  <Query Sequence>
AAGUUCGAUAAUAGUCGCAAG [Fam3.1 aminoacylation ribozyme variant]

>  <Study System>
biotinyl-Val-oxazolone

>  <Category Label>
middle class

$$$$

Okay, now this sequence:
Returns: class label. Input: AAGUUUGCUAAUAAUCGCAAG [Fam3.1 aminoacylation ribozyme variant]
low class
